Reference source: paper PMC5540273

Test system: AMPK-alpha2;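 note: KINOMEscan kinase panel screen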
Construct: gene PRKAA2
Details: concentration: 1 μM, replicates: in singlicate; n = 1
experimental.endpoint: %Inh (%)
One number for each entry, in %.

Study these solved cases before continuing.
| compound | scale.unit | %Inh |
| --- | --- | --- |
| Cn1cc(-c2ccc3c(c2)CCN3C(=O)Cc2cccc(F)c2)c2c(N)ncnc21 [GSK2603358] | % | 22 |
| CN(c1ccc(NC(=O)Nc2cc(C(F)(F)F)ccc2F)cc1)c1ccnc(Nc2ccc(S(N)(=O)=O)cc2)n1 [GW809893] | % | 19 |
| COC(=O)Nc1nc2cc(Oc3ccc(NC(=O)Nc4cc(C(F)(F)F)ccc4F)cn3)ccc2[nH]1.Cl.Cl [GW681170] | % | 23 |
| CCn1c(-c2nonc2N)nc2c(C#CC(C)(C)O)ncc(OCCCCN)c21.O=C(O)C(F)(F)F.O=C(O)C(F)(F)F [GSK507274] | % | 0 |
| CNC(=O)c1ccccc1Nc1nc(Nc2ccc(N3CCOCC3)cc2)ncc1Cl.Cl [GSK1576028] | % | 99.4 |

Below is a list of compounds. For each, state its recorded %Inh.
1. Oc1cc(Nc2ccnc3cc(I)ccc23)ccc1F [GW552771]
2. CC(C)c1nc(-c2cccc(NS(=O)(=O)c3c(F)cccc3F)c2F)c(-c2ccnc(Nc3ccc(N4CCOCC4)nc3)n2)s1 [GSK2008607]
3. O=C(Nc1cccc(-c2nn3ccccc3c2-c2ccnc(Nc3cccc(C(F)(F)F)c3)n2)c1)c1c(F)cccc1F [GSK292658]
4. COc1cccc(C2=C(Nc3ccc(Cl)c(C(=O)O)c3)C(=O)NC2=O)c1 [SB-390769]
5. Cl.c1ccc(-c2ccc3c(Nc4ccc5[nH]ccc5c4)ccnc3c2)nc1 [GW440138]
6. CN(C)Cc1ccc(-c2ccc3c(Nc4ccc(Oc5ccccn5)cc4)ccnc3c2)o1 [GW567148]
7. COc1cc(Nc2nccc(N3CCC(NC(=O)c4cc5ccccc5s4)C3)n2)cc(OC)c1OC (centres unmarked) [GSK1379760]

1: 1; 2: 98.8; 3: 13; 4: 2; 5: 0; 6: 0; 7: 30

Take each entry in turn and give its %Inh.
1. CN(C)S(=O)(=O)c1cc(-c2ccc3nccc(-c4cccc(S(N)(=O)=O)c4)c3c2)cnc1N [GSK1669921]
2. COc1cc(Nc2nccc(-c3c(-c4cccc(NC(=O)c5c(F)cccc5F)c4)nn4ncccc34)n2)cc(OC)c1OC [GSK327238]
3. COc1ccc(Nc2nccc(N3CCC(NC(=O)Nc4cccc(OC)c4)C3)n2)cc1 (centres unmarked) [GSK1379742]
4. O=c1[nH]cc(-c2ccc(N3CCOCC3)cc2)c2sc(-c3cn[nH]c3)cc12 [GSK2276055]
5. Cc1cccc(Nc2nc(N[C@H]3CCNC3)ncc2C(N)=O)c1.Cl [GSK2197149]
6. COc1cc(Nc2nccc(-c3c(-c4cccc(NC(=O)c5c(F)cccc5F)c4)nn4ccccc34)n2)cc(OC)c1OC [GSK323521]

1. 0
2. 48
3. 0
4. 0
5. 33
6. 23

For each of the compounds below, state %Inh.
1. CCc1ccc(-c2ccc3c(c2)-c2c(cnn2C)S(=O)(=O)N3C)cc1
2. COc1cccc(C(=O)Nc2cccc(Oc3ccc4nc(NC(=O)C5CC5)cn4n3)c2)c1
3. COc1ccc(CNC(=O)NC2CCN(c3ccnc(Nc4ccc(F)cc4)n3)CC2)cc1 [GSK1379788]
4. O=C(O)C(F)(F)F.O=C(O)C(F)(F)F.O=c1[nH]ccc2nc(N[C@@H]3CCCNC3)nc(Nc3ccc(S(=O)(=O)N4CCOCC4)cc3)c12 [GSK2177277]
5. COC(=O)Nc1nc2ccc(Oc3ccc(NC(=O)Nc4cc(C(F)(F)F)ccc4F)cc3)cc2n1C.Cl [GW692089]

0
0
0
98.1
22

Lab note: each compound below needs its %Inh filled in.
1. CCn1c(-c2nonc2N)nc2c(C#CC(C)(C)O)nc(OC[C@H](N)c3ccccc3)cc21 [GSK943949]
2. COc1cc2c(cc1OCCN1CCNCC1)ncc1c3ccc(C#N)cc3[nH]c21
3. CSc1cccc2c(-c3ccncn3)c(-c3ccc(F)cc3)nn12 [GW514786]
4. COc1cc(Nc2nccc(N3CCC(NC(=O)Nc4cccc(C(C)=O)c4)C3)n2)cc(OC)c1OC (centres unmarked) [GSK1379753]
5. Nc1ncc(-c2cccnc2)c2scc(-c3ccc4c(c3)CCN4C(=O)Cc3ccccc3)c12 [GSK683281]
6. COc1ccc(Nc2nccc(NCCNC(=O)c3cc4ccccc4s3)n2)cc1 [GSK1379896]
7. COc1cccc(-c2ccc3c(NC(=O)C4CC4)n[nH]c3n2)c1 [SB-710903]
8. C[C@@H]1CC[C@@H](C(=O)Nc2ccccc2)CN1c1cc(-c2ccc3c(N)n[nH]c3c2)nc(N)n1 [GSK2286062]

1. 3
2. 4
3. 0
4. 0
5. 20
6. 0
7. 13
8. 0

Entry Nc1n[nH]c2cnc(-c3ccccc3)cc12 [SB-642124] : reported %Inh = ? 30
